# Tested on: PNT2 cells
# Test Method Notes: MTT cytotoxicity assay
# Type: cell-based, human
# Condition Summary: PNT2, 48 h, mean ± SD

| Compound | Scale Unit | IC50 |
| --- | --- | --- |
| N.N.[Cl][Pt][Cl] [Cis, cisplatin] | µM | 9.41 |

All figures here come from paper PMC12322260.
